tested on: PC26; assay: qHTS profiling for inhibitors of Plasmodium falciparum proliferation (AID 504749); note: nearly all actives have a fitted effect of over 60% in size; conditions: P. falciparum in erythrocytes, SYBR Green DNA, 72 h; series mostly up to 28.7 µM
Results filed as inconclusive are left out. Activity calls are given as the source filed them. Calls come from the whole dose curve; as a rule, active = well fitted inhibition curve with a large enough effect; inconclusive = small, poorly fitted or top-dose-only effect; inactive = flat fitted curve, though single readings scatter.
Form entry, call: pick from 1.0 (active), 0.0 (inactive)

Data request: Recorded test outcome, item Cc1cccc(C)c1NC(=O)c1ccccc1C(=O)O
Data returned: 0.0

Data request: Each compound tested received a call. Report the one for CC(=O)O[C@H]1C[C@@H]2CC[C@@H]3[C@H](CC[C@@]4(C)[C@H]3C[C@H]([N+]3(C)CCCCC3)[C@@H]4OC(C)=O)[C@@]2(C)C[C@@H]1N1CCCCC1 .
Data returned: 0.0

Data request: Status in this test for Cc1ccc(S(=O)(=O)NC(=O)NC2CCCC2)cc1 ?
Data returned: 0.0

Data request: Field: outcome | Entry: c1ccc(CC2=NCCN2)cc1
Data returned: 0.0

Data request: Recorded call for CCCCC(CC)COC(=O)c1ccc(N(C)C)cc1 (centres undefined) ?
Data returned: 0.0

Data request: Each compound tested received a call. Report the one for CCCCCN=C(N)N/N=C/c1c[nH]c2ccc(OC)cc12 .
Data returned: 1.0

Data request: Can you look up the reported call for N=C(N)N1CCc2ccccc2C1 for me?
Data returned: 0.0

Data request: Hi, do you know how CCCCCCCCOc1ccc(C(=O)c2ccccc2)c(O)c1 came out in this test?
Data returned: 0.0

Data request: Please let me know the test result on file for Cc1cccc(C)c1NC(=O)CN1CCCCCC1 .
Data returned: 0.0

Data request: Each compound tested received a call. Report the one for CCOC(=O)[C@H](CCc1ccccc1)N[C@@H](C)C(=O)N1[C@H](C(=O)O)C[C@H]2CCCC[C@@H]21 .
Data returned: 0.0

Data request: Dear all, I need the recorded test outcome for COc1cc(C)nc(-n2nc(C)cc2OC)n1 , thank you.
Data returned: 0.0

Data request: Look up the recorded call for O=C(O)CCC(=O)Nc1ccc(S(=O)(=O)Nc2nccs2)cc1 in this test.
Data returned: 0.0

Data request: Answer briefly: the call reported for CC(=O)Nc1ncc([N+](=O)[O-])s1 in this assay.
Data returned: 0.0

Data request: Fill in: this test's call for CCC(CC)(CC(=O)Nc1cccc(/C=C/c2nc(C3CCC3)cs2)c1)C(=O)O is ___
Data returned: 0.0

Data request: Kindly provide the recorded test outcome for the following compound: C#C[C@]1(O)CC[C@H]2[C@@H]3CCc4cc(OC)ccc4[C@H]3CC[C@@]21C
Data returned: 0.0

Data request: Please state the recorded outcome for this compound: Cc1c(-c2ccccc2)oc2c(C(=O)OCCN3CCCCC3)cccc2c1=O
Data returned: 0.0

Data request: Give the logged outcome of this assay for the following compound: Nc1ccc(S(=O)(=O)Nc2cnc3ccccc3n2)cc1
Data returned: 0.0

Data request: Look up the recorded call for CC(C)CCCC(C)N (centres undefined) in this test.
Data returned: 0.0

Data request: Outcome logged for CC[N+](C)(CC)CCOC(=O)C(O)(c1ccccc1)C1CCCCC1 (centres undefined) in this assay:
Data returned: 0.0

Data request: Entry Cc1cccc(C)c1NC(=O)CN1CCCC1 : call = ?
Data returned: 0.0

Data request: So what was the verdict on NC(=O)C1(N2CCCCC2)CCN(CCCC(=O)c2ccc(F)cc2)CC1 in this test?
Data returned: 0.0

Data request: Record request — test call for CCN(CC)CCOC(=O)C1(c2ccccc2)CCCC1
Data returned: 0.0

Data request: Please indicate how the test categorized C/C=C/c1ccc(O)c(OC)c1 .
Data returned: 0.0

Data request: Look up the recorded call for CC(=O)Nc1ccc(OC(=O)c2ccccc2OC(C)=O)cc1 in this test.
Data returned: 0.0
